Where do the numbers come from? From patent US5223526A.

# Test system: Botrytis cinerea
# assay info: Vine grey mold (grape berries)
# Type: in vivo
# condition description: grape berries treated with 50 ppm, average of six berries, 7-10 days, read-out: % DISEASE CONTROL 50 ppm
Please provide measured pest or weed control at 50 ppm for the entries that follow.
Please respond with the number in % and leave the unit unwritten.

Field: pest or weed control at 50 ppm (Botrytis cinerea). Entry: Cc1nn(C)cc1C(=O)Nc1ccccc1C1CCCCCCC1 34

Field: pest or weed control at 50 ppm (Botrytis cinerea). Entry: O=C(Nc1ccccc1C1CCCCC1)c1c[nH]nc1C(F)F 36

Field: pest or weed control at 50 ppm (Botrytis cinerea). Entry: Cn1cc(C(=O)Nc2ccccc2C2CCCC2)c(C(F)(F)Cl)n1 0

Field: pest or weed control at 50 ppm (Botrytis cinerea). Entry: CSc1nn(C)cc1C(=O)Nc1ccccc1C1CCCCC1 50

Field: pest or weed control at 50 ppm (Botrytis cinerea). Entry: Cn1cc(C(=O)Nc2ccccc2C2CCCCCC2)c(C(F)(F)Cl)n1 36

----------
Please provide measured Disease Control Rating at 500 ppm for the entries that follow.
# System: Botrytis cinerea
# assay info: Eggplant grey mold
# Type: in vivo
# Design: key: 0: No disease control; 1: Low level of control; 2: Moderate control; 3: High level of control
# condition description: eggplant sprayed with 500 ppm, inoculated 24 h later, rated after 3-4 days
Please give only the number in your answer, with no unit.

// lookup Disease Control Rating at 500 ppm for Cn1cc(C(=O)Nc2ccccc2C=C2CCCCCC2)c(C(F)F)n1 [Example 147] 0

// lookup Disease Control Rating at 500 ppm for Cn1cc(C(=O)Nc2ccccc2CC2CCCC2)c(C(F)(F)F)n1 [Example 142] 1

// lookup Disease Control Rating at 500 ppm for Cc1c(C(=O)Nc2ccccc2[C@@H]2C[C@H]3CC[C@@H]2C3)c(C(F)(F)F)nn1C (relative stereo) [Example 100] 0

// lookup Disease Control Rating at 500 ppm for Cn1nc(C(F)(F)F)c(C(=O)Nc2ccccc2C2CCCCC2)c1Cl [Example 87] 0

// lookup Disease Control Rating at 500 ppm for CC(c1ccccc1NC(=O)c1cn(C)nc1C(F)(F)F)C1CCCC1 (stereo not drawn) [Example 53] 0

// lookup Disease Control Rating at 500 ppm for Cn1cc(C(=O)Nc2ccccc2OCCC2CCCC2)c(C(F)(F)F)n1 [Example 55] 0

// lookup Disease Control Rating at 500 ppm for Cn1cc(C(=O)Nc2ccccc2C2=CCCCCCC2)c(C(F)F)n1 [Example 119] 2

// lookup Disease Control Rating at 500 ppm for COc1cccc(NC(=O)c2cn(C)nc2C(F)(F)F)c1C1CCCCCCC1 [Example 37] 2

// lookup Disease Control Rating at 500 ppm for Cn1cc(C(=O)Nc2ccccc2O[C@@H]2C[C@H]3CC[C@@H]2C3)c(C(F)(F)F)n1 (relative stereo) [Example 81] 0

// lookup Disease Control Rating at 500 ppm for Cn1nc(C(F)F)c(C(=O)Nc2ccccc2C2CCCCCC2)c1F [Example 115] 3

// lookup Disease Control Rating at 500 ppm for Cn1cc(C(=O)Nc2ccccc2C2=CCCCCC2)c(C(F)F)n1 [Example 111] 1

// lookup Disease Control Rating at 500 ppm for Cn1cc(C(=S)Nc2ccccc2[C@@H]2C[C@H]3CC[C@@H]2C3)c(C(F)F)n1 (relative stereo) [Example 102] 1

// lookup Disease Control Rating at 500 ppm for Cn1cc(C(=O)Nc2ccccc2C2=CCCCCCC2)c(C(F)(F)F)n1 [Example 120] 2

// lookup Disease Control Rating at 500 ppm for Cc1ccc(OC2CCCCC2)c(NC(=O)c2cn(C)nc2C(F)F)c1 [Example 96] 0

// lookup Disease Control Rating at 500 ppm for Cn1cc(C(=O)Nc2ccccc2C=C2CCCCCC2)c(C(F)(F)F)n1 [Example 143] 0

// lookup Disease Control Rating at 500 ppm for O=C(Nc1ccccc1C1CCCCC1)c1cn(C(F)F)nc1C(F)F [Example 61] 1

// lookup Disease Control Rating at 500 ppm for Cn1cc(C(=O)Nc2cc(F)ccc2C2CCCCC2)c(C(F)F)n1 [Example 16] 1

// lookup Disease Control Rating at 500 ppm for CCC1CC=C(c2ccccc2NC(=O)c2cn(C)nc2C(F)(F)F)CC1 (stereo not drawn) [Example 126] 1

// lookup Disease Control Rating at 500 ppm for C[C@H]1CCC[C@H](c2ccccc2NC(=O)c2cn(C)nc2C(F)(F)F)C1 (relative stereo) [Example 70] 3

// lookup Disease Control Rating at 500 ppm for COc1ccc(C2CCCCCCC2)c(NC(=O)c2cn(C)nc2C(F)(F)F)c1 [Example 38] 2

// lookup Disease Control Rating at 500 ppm for Cn1cc(C(=O)Nc2ccccc2OC2CCCCC2)c(C(F)F)n1 [Example 22] 0

// lookup Disease Control Rating at 500 ppm for Cc1ccc(C2CCCCC2)c(NC(=O)c2cn(C)nc2C(F)(F)F)c1 [Example 18] 0

// lookup Disease Control Rating at 500 ppm for Cn1nc(C(F)(F)F)c(C(=O)Nc2ccccc2C2CCCCCC2)c1Cl [Example 89] 0

// lookup Disease Control Rating at 500 ppm for Cn1cc(C(=O)Nc2ccccc2C2=CCCCC2)c(C(F)(F)F)n1 [Example 110] 2
